Value source: paper PMC5780489

- target-or-system: T1, PABPC1 RRM1/2/3/4 (residues 1-370) (human, UniProt P11940 1-370)
- T1 construct: human PABPC1, residues 1-370 (RRM1 to RRM4), cloned into pET-42b(+); Used in complex with long poly(A) or A24 RNA; Purification details are in the Supplementary methods; source: E. coli, purified (Glutathione-Sepharose 4B, GST cleaved off, cation exchange, gel filtration)
- T1 sequence (P11940 1-370): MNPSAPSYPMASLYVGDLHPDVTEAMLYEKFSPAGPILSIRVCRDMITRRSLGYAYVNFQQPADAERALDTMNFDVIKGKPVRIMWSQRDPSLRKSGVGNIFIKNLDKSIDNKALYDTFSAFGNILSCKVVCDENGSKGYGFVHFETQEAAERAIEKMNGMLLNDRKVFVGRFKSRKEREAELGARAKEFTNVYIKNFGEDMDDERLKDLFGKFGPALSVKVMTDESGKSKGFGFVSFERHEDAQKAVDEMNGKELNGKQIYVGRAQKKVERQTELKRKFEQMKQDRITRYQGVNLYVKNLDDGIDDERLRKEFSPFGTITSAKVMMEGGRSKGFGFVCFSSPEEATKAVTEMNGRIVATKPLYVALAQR
- experiment-summary: NMR titration; 1H-15N HSQC of 15N-labelled Lt2 (100 μM) with RRM1/2/3/4-A24 at 50, 100 and 150 μM; chemical shift changes of W437 side chain, W437 and T438 fitted to a 1:1 model; not saturated; 303 K, 26 mM NaH2PO4 pH 6.0, 100 mM NaCl
- reported-conditions: both partners purified
pKd: −log10 of the molar value.

binder	pKd
AYYPPSQIAQLRPSPRWTAQGARPHPFQNMPGAIRPAAPRPPFSTMRPAS (peptide, UniProt P11940 421-470, looked up, human PABPC1, residues 421-470, cloned into pGEX-6p-1; Uniformly 15N-labelled for NMR) [PABPC1 linker fragment Lt2 (residues 421-470)]	4.27 to 5.00
